Test: Phase-Ib study in CF patients, plasma pharmacokinetics (LC-MS/MS)
Type: in vivo
Details: human, inhaled or intranasal, dose group 3 (320 mg), inhalation, CF patients
Non-standard residues stand in square brackets, D forms with d. Residues, ends and D or L forms follow the SMILES beside them. Gly(octyl) = CCCCCCCC[C@H](N)C(=O)O
MEASUREMENT_LABEL: Tmax (h)
Please state the figure in h; there is no need to write the unit.

Query: What value of measured Tmax is listed for CCCCCCCC[C@@H]1NC(=O)[C@@H]2CCCN2C(=O)[C@H]2CCCN2C(=O)[C@H](Cc2ccc(O)cc2)NC(=O)[C@H](CCCCN)NC(=O)[C@H](CCC(N)=O)NC(=O)[C@@H]2CCCN2C(=O)[C@@H]2CCCN2C(=O)[C@H]([C@@H](C)CC)NC(=O)[C@H](CO)NC(=O)[C@H](C)NC(=O)[C@H]([C@@H](C)O)NC(=O)[C@H](CCC(=O)O)NC1=O [active compound] (cyclo([Gly(octyl)]ETASIPPQKY[dP]P)) ?
Response: 2.3

###

Experiment: Phase-Ib study in CF patients, plasma pharmacokinetics (LC-MS/MS)
Type: in vivo
Settings: human, inhaled or intranasal, dose group 1 (80 mg), inhalation, CF patients
Non-standard residues stand in square brackets, D forms with d. Residues, ends and D or L forms follow the SMILES beside them. Gly(octyl) = CCCCCCCC[C@H](N)C(=O)O
MEASUREMENT_LABEL: Tmax

Query: What value of measured Tmax is listed for CCCCCCCC[C@@H]1NC(=O)[C@@H]2CCCN2C(=O)[C@H]2CCCN2C(=O)[C@H](Cc2ccc(O)cc2)NC(=O)[C@H](CCCCN)NC(=O)[C@H](CCC(N)=O)NC(=O)[C@@H]2CCCN2C(=O)[C@@H]2CCCN2C(=O)[C@H]([C@@H](C)CC)NC(=O)[C@H](CO)NC(=O)[C@H](C)NC(=O)[C@H]([C@@H](C)O)NC(=O)[C@H](CCC(=O)O)NC1=O [active compound] (cyclo([Gly(octyl)]ETASIPPQKY[dP]P)) ?
Response: 1.3 h

###

Assay: GLP-compliant 28-day inhalation toxicity study in monkeys
Type: in vivo, cynomolgus monkey
Details: both sexes, in vivo, inhaled or intranasal; cynomolgus monkey, oro-nasal inhalation 60 min per day for 28 days
Non-standard residues stand in square brackets, D forms with d. Residues, ends and D or L forms follow the SMILES beside them. Gly(octyl) = CCCCCCCC[C@H](N)C(=O)O
MEASUREMENT_LABEL: NOAEL at 28 days (mg/kg/day)
Please state the figure in mg/kg/day; there is no need to write the unit.

Query: What value of measured NOAEL at 28 days is listed for CCCCCCCC[C@@H]1NC(=O)[C@@H]2CCCN2C(=O)[C@H]2CCCN2C(=O)[C@H](Cc2ccc(O)cc2)NC(=O)[C@H](CCCCN)NC(=O)[C@H](CCC(N)=O)NC(=O)[C@@H]2CCCN2C(=O)[C@@H]2CCCN2C(=O)[C@H]([C@@H](C)CC)NC(=O)[C@H](CO)NC(=O)[C@H](C)NC(=O)[C@H]([C@@H](C)O)NC(=O)[C@H](CCC(=O)O)NC1=O [active compound] (cyclo([Gly(octyl)]ETASIPPQKY[dP]P)) ?
Response: 112

###

Experiment: Phase-Ib study in CF patients, plasma pharmacokinetics (LC-MS/MS)
Format: in vivo
Conditions: human, inhaled or intranasal, dose group 3 (320 mg), read-out: mean plasma concentration 24 hours after inhalation
Non-standard residues stand in square brackets, D forms with d. Residues, ends and D or L forms follow the SMILES beside them. Gly(octyl) = CCCCCCCC[C@H](N)C(=O)O
MEASUREMENT_LABEL: level at 24 h
Don't forget the unit after the number, please.

Query: What value of measured level at 24 h is listed for CCCCCCCC[C@@H]1NC(=O)[C@@H]2CCCN2C(=O)[C@H]2CCCN2C(=O)[C@H](Cc2ccc(O)cc2)NC(=O)[C@H](CCCCN)NC(=O)[C@H](CCC(N)=O)NC(=O)[C@@H]2CCCN2C(=O)[C@@H]2CCCN2C(=O)[C@H]([C@@H](C)CC)NC(=O)[C@H](CO)NC(=O)[C@H](C)NC(=O)[C@H]([C@@H](C)O)NC(=O)[C@H](CCC(=O)O)NC1=O [active compound] (cyclo([Gly(octyl)]ETASIPPQKY[dP]P)) ?
Response: 0.0152 µg/mL
